Assay: binders of probe aFGF2 on microarray, primary screen, stem cell growth factor project, biochemical, small-molecule microarray, fluorescence 635/667 (AID 1067);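 also: measures binding of biotinylated aFGF2 protein to printed compounds on slides; z-score merges feature fluorescence and signal-to-noise across triplicate slides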
Details: higher = more signal
Reported composite z-score values follow for various molecules

C=CCNC(=O)[C@@H]1[C@H]2C(=O)O[C@H](c3ccccc3)[C@H](c3ccccc3)N2[C@H](c2ccccc2OCCO)[C@@]12C(=O)N(C(=O)OCCOC)c1ccc(C#CCCO)cc12    0.0645
CCOC(=O)C1=CC[C@@H](c2ccccc2Cl)N(S(=O)(=O)c2ccc(C)cc2)[C@H]1c1cccc(OC)c1    -0.0276
C=C(COC)/C(=C/C[C@@H](OC(C)=O)c1ccccc1OCCO)c1cc(C(=O)OC)ccc1OC    -0.116

Query molecule follows.
Look up and report measured composite z-score for this entry: CC(C)[C@@H](C(=O)O)n1cc(-c2ccccc2)nn1 -0.0894

* * *

System: Chordin-like protein 2 (CHRDL2)
Assay: CHRDL2 small-molecule binders, primary screen, biochemical, small-molecule microarray, 635 nm fluorescence (AID 1126);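 also: printed compound slides probed with Chrdl2 protein at 4 µg/mL for 1 h at 4 C; score merges 667 nm emission intensity with signal to noise over three replicate slides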
Details: small-molecule microarray binding, fluorescence 635 nm; higher = more signal
Endpoint Label: composite z-score
Number only, no unit.

CC(=O)n1cc(C(O)C2C=CC3C(=O)N(c4ccccc4)C(=O)C3N2Nc2ccccc2F)c2ccccc21 (stereo not given)    -0.997
C=CCC(OC(C)=O)[C@@H]1[C@@H](N(Cc2ccc(-c3ccccc3)cc2)C(=O)c2ccc(C)cc2)c2cc(OCCCO)ccc2N1C(=O)c1ccc2ccccc2c1 (stereo not given in full)    0.0542
O=C(NCC(F)(F)F)[C@@H]1c2ccccc2C(=O)N(CC23CC4CC(CC(C4)C2)C3)[C@H]1c1ccc(CO)cc1    0.162
COc1ccc([Si](C)(C)[C@H]2[C@H](CCO)O[C@@]3(C(=O)N(Cc4ccc(N5CCOC5=O)cc4)c4ccccc43)[C@@H]2C)cc1    -0.07
COCCOC(=O)N1C(=O)[C@@]2(c3cc(C#CC4(O)CCCCCC4)ccc31)[C@H](c1ccc(OCCO)cc1)N1[C@H](c3ccccc3)[C@H](c3ccccc3)OC(=O)[C@H]1[C@@H]2C(N)=O    0.986

Look up and report measured composite z-score for this entry: CN1C(=O)C2C=CC(C(O)c3ccc(-c4ccccc4)s3)N(Nc3ccccc3)C2C1=O (stereo not given) -0.121

Look up and report measured composite z-score for this entry: Cc1ccc(F)cc1S(=O)(=O)N[C@@H]1CCN(Cc2ccc3c(c2)OCO3)C1 0.0213

Look up and report measured composite z-score for this entry: COCCOC(=O)N1C(=O)[C@@]2(c3cc(C#Cc4ccc(OC)cc4)ccc31)[C@H](C(=O)Nc1nc3ccccc3s1)[C@H]1C(=O)O[C@H](c3ccccc3)[C@H](c3ccccc3)N1[C@@H]2c1ccccc1OCCO 0.649

Look up and report measured composite z-score for this entry: C=C(COC)/C(=C/C[C@H](OC(=O)c1ccncc1)c1cccc(OCCO)c1)c1cnc2ccccc2c1 1.23

Look up and report measured composite z-score for this entry: C=C(C(=O)CC[C@@H](OC(C)=O)c1cccc(OCCO)c1)C(C)C -0.298

Look up and report measured composite z-score for this entry: CCOC(=O)C1=C(C(=O)OCC)N(S(=O)(=O)CC[Si](C)(C)C)[C@H](c2ccccc2)CC1 -0.0267

* * *

Test system: Human papillomavirus type 1a E7 protein (residues 1-88)
Experiment: HPV1a E7 small-molecule binders, primary screen, biochemical, small-molecule microarray, residues 1-88, 635 nm (AID 1129)
Settings: small-molecule microarray binding, fluorescence 635 nm; higher = more signal
Endpoint Label: composite z-score

// below: answered molecules
COCCOC(=O)N1C(=O)[C@@]2(c3cc(C#CC4(O)CCCCCC4)ccc31)[C@H](C(=O)NC[C@H](O)c1ccccc1)[C@H]1C(=O)O[C@H](c3ccccc3)[C@H](c3ccccc3)N1[C@@H]2c1ccc(O)cc1    1.18
CCOC(=O)C1=CC[C@@H](c2ccccc2)N(S(=O)(=O)c2ccc(C)cc2)[C@H]1C#N    1.2

Look up and report measured composite z-score for this entry: CN(C)CCCC[C@@H]1NC(=O)[C@@H]2C[C@H](C(=O)NCc3ccc(F)cc3)[C@H](c3ccc(O)cc3)N2C1=O 0.0709

Look up and report measured composite z-score for this entry: COCCOC(=O)N1C(=O)[C@@]2(c3cc(C#Cc4ccc(OC)cc4)ccc31)[C@H](c1ccc(OCCO)cc1)N1[C@H](c3ccccc3)[C@H](c3ccccc3)OC(=O)[C@H]1[C@@H]2C(=O)N1CCCCCCC1 1.2

Look up and report measured composite z-score for this entry: COC(=O)c1c(CC[C@@H](CO)NC(=O)N[C@@H](Cc2ccccc2)Cn2cc(-c3cncn3C)nn2)oc(C(C)=O)c1C(=O)OC 0.873

Look up and report measured composite z-score for this entry: O=C1NC(=O)C2C1C=CC(C(O)c1cccc(O)c1)N2Nc1ccc(Cl)cc1Cl (centres undefined) -0.0332

Look up and report measured composite z-score for this entry: CN(C)CCCNC(=O)[C@@H]1c2ccccc2C(=O)N(C2Cc3ccccc3C2)[C@H]1c1ccc(CO)cc1 1.11

* * *

Experiment: P. aeruginosa biofilm formation inhibitors, primary screen, strain PAO1, LB-PBS medium, absorbance 600 nm (AID 1176); also: test concentration not given here
Conditions: P. aeruginosa PAO1 growth/biofilm, A600, 12 h; higher = more signal
Assign satisfied whenever z-score does not fall below 0.09; assign not satisfied whenever it does.

These solved cases illustrate the format of a correct answer.
C#CCN([C@H](/C=C/C1CC1)[C@@H](O)Cc1ccccc1)[C@@H](Cc1ccccc1)C(=O)OC    not satisfied
CCOC(=O)C1=CC[C@@H](c2ccc(F)cc2)N(S(=O)(=O)c2ccc(C)cc2)[C@H]1c1ccc([N+](=O)[O-])cc1    not satisfied
O=C1O[C@H](c2ccccc2)[C@H](c2ccccc2)N2[C@H]1[C@@H](C(=O)NC[C@H](O)c1ccccc1)[C@]1(C(=O)Nc3ccc(C#CCCO)cc31)[C@H]2c1ccccc1OCCO    satisfied
CCCCC(=C=CC[C@@H](O)c1ccc(OCCO)cc1)C[C@@H](O)c1ccccn1    satisfied

Decide: is the reported value of z-score for CCOC(=O)C1=CC[C@@H](c2ccccc2)N(S(=O)(=O)c2ccc(C)cc2)[C@H]1C#N equal to or greater than 0.09? satisfied

Decide: is the reported value of z-score for CC(C)(C)OC(=O)CC[C@]1(C(=O)N2CCOCC2)N=C(c2ccc(OCCCO)cc2)O[C@H]1c1ccccc1CN=[N+]=[N-] equal to or greater than 0.09? satisfied

Decide: is the reported value of z-score for CC(C)C[C@H]1NC(=O)[C@H](Cc2ccccc2)NC(=O)[C@@]23C(=O)N[C@@H](Cc4ccccc4)C2[C@H](C)[C@@]2(C)O[C@H]2C3/C=C/C/C=C\CNC1=O (stereo partly drawn) equal to or greater than 0.09? satisfied

* * *

System: glycogen synthase kinase-3 (GSK3A per assay name; protocol says GSK3B)
Experiment: GSK3 binders on small-molecule microarrays, primary screen, biochemical, small-molecule microarray, 635 nm fluorescence, GSK3A (AID 1103); also: the record names both GSK3A and GSK3B
Conditions: small-molecule microarray binding, fluorescence 635 nm; higher = more signal
Endpoint Label: composite z-score

CCC(CC)C(O)C1C=CC2C(=O)N(C)C(=O)C2N1N1CCCCC1 (stereo not drawn)    0.93
COCCOC(=O)N1C(=O)[C@@]2(c3cc(C#CCC(C(=O)OC)C(=O)OC)ccc31)[C@H](C(N)=O)[C@H]1C(=O)O[C@H](c3ccccc3)[C@H](c3ccccc3)N1[C@@H]2c1ccc(OCCO)cc1    1.31

Look up and report measured composite z-score for this entry: COc1ccc(C#Cc2ccc3c(c2)[C@]2(C(=O)N3)[C@H](C(=O)Nc3nc4ccccc4s3)[C@H]3C(=O)O[C@H](c4ccccc4)[C@H](c4ccccc4)N3[C@@H]2c2ccc(OCCO)cc2)cc1 1.3

* * *

Test: basal MM1S mitochondrial membrane potential changes, profiling panel, cell-based, JC-1 fluorescence, 24 h, 100 nL compound (AID 1170); also: test concentration not given here
Details: higher = more signal
Endpoint Label: z-score
Number only, no unit.

// below: answered compounds
CCCCC(O)C1C=CC2C(=O)NC(=O)C2N1Nc1ccccn1 (centres undefined)    -0.00704
CCC[C@@H]1C=C(C(=O)OCC)[C@H](c2ccccc2)N1S(=O)(=O)c1ccc(C)cc1    -0.65
CN(C)CCCC[C@@H]1NC(=O)[C@H]2C[C@@H](C(=O)O)[C@@H](c3cccc(OCCO)c3)N2C1=O    -0.713

Look up and report measured z-score for this entry: O=C1c2ccccc2[C@](Cc2ccccc2I)(C(=O)O)[C@H](c2ccc(CO)cc2)N1Cc1ccccc1 -0.349

Look up and report measured z-score for this entry: COc1cccc(OC)c1C(=O)O[C@H]1[C@@H]2OC(=O)[C@H](Cc3cccc(Br)c3)C/C=C/C[C@@H](Cc3cccc(Br)c3)C(=O)O[C@H]2[C@@H](OC)O[C@@H]1CO -0.211

Look up and report measured z-score for this entry: CCCCC=C[C@@H](NC(=O)c1ccc(C(F)(F)F)cc1)c1ccccc1 -1.27

Look up and report measured z-score for this entry: COc1ccc([Si](C)(C)[C@H]2[C@H](CCn3cc([C@H](O)c4ccccc4)nn3)O[C@@]3(C(=O)N(c4ccccc4)c4ccccc43)[C@@H]2C)cc1 -0.794

Look up and report measured z-score for this entry: COCCCNC(=O)[C@@H]1c2ccccc2C(=O)N(Cc2cc(C(F)(F)F)cc(C(F)(F)F)c2)[C@H]1c1ccc(CO)cc1 0.636

Look up and report measured z-score for this entry: C[C@H]1NC(=O)C([C@@H](C)OCc2ccccc2)NC(=O)[C@@]23C(=O)N[C@@H](Cc4ccccc4)C2[C@H](C)[C@@]2(C)O[C@H]2C3/C=C/C/C=C\CNC1=O (some centres undefined) 0.607

Look up and report measured z-score for this entry: [N-]=[N+]=Nc1ccccc1[C@@H]1OC(c2ccc(OCCCO)cc2)=N[C@]1(Cc1ccccc1)C(N)=O -0.789

Look up and report measured z-score for this entry: COC(=O)C1=CC(CCCO)=CC(c2ccc(CN3CCCC3)cc2)N(Cc2sc3ccccc3c2Cl)C=C1C(=O)OC (centres undefined) 2.3

Look up and report measured z-score for this entry: COc1ccc(CCNC(=O)[C@@]2(C)c3ccccc3C(=O)N(Cc3cc(C(F)(F)F)cc(C(F)(F)F)c3)[C@H]2c2ccc(CO)cc2)cc1 0.783

Look up and report measured z-score for this entry: CC(C)C[C@@H]1NC(=O)[C@@H]2C[C@H](C(=O)NCCCC[N+](C)(C)C)[C@H](c3ccc(O)cc3)N2C1=O -0.548

Look up and report measured z-score for this entry: [N-]=[N+]=NCc1ccccc1[C@@H]1OC(c2ccc(OCCCO)cc2)=N[C@]1(Cc1ccccc1)C(=O)NCc1ccccc1 -0.921

Look up and report measured z-score for this entry: CCOC(=O)C1=CC[C@@H](c2ccccc2)N(S(=O)(=O)C[Si](C)(C)C)[C@H]1c1ccccc1 -0.667
